Data credit: ChEMBL document CHEMBL4190310

# Species on record: Homo sapiens
# Test name: Selectivity ratio of Ki for human alpha1B-adrenoreceptor to Ki for human alpha1D-adrenoreceptor
Measure name: Ratio Ki

Molecule: CNc1ccc2c(c1)[C@@H](NCCOc1cc(F)ccc1F)CCS2(=O)=O
Observed value: 500

[I] CS(=O)(=O)c1ccc(Cl)cc1CNCCOc1cc(F)ccc1Cl
[II] CNc1ccc2c(c1)C(NCCOc1cc(F)ccc1F)CCS2(=O)=O (centres undefined)
Input line: Short answer wanted: higher Ratio Ki, I or II ? Return value: the label identifying the chosen record.
Output line: II
(II: 510, I: 65)

---

# Target or test system: CYP3A4 (Homo sapiens, UniProt P08684)
# Sequence (P08684 whole entry): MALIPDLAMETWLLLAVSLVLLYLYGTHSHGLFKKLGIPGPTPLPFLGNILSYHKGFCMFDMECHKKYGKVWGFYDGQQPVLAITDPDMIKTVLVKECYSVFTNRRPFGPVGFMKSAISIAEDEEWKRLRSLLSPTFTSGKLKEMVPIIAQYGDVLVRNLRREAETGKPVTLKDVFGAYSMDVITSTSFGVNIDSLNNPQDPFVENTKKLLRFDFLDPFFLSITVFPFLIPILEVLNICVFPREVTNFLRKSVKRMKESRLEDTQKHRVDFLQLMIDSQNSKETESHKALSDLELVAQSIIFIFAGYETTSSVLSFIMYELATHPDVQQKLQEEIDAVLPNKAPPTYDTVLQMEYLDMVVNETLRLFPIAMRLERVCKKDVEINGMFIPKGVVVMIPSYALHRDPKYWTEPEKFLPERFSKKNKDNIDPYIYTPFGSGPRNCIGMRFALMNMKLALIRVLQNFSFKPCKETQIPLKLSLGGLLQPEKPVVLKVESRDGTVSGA
# Test name: Inhibition of human microsomal CYP3A4 at 10 uM after 10 mins by LC-MS/MS analysis relative to control
# Type: ADME
# Assay conditions: microsomes
Measure name: inhibition at 10 min, 10 µM (%)

Compound: O=S1(=O)CCC(NCCOc2cc(F)ccc2Cl)c2ccccc21 (stereo unspecified)
Target or test system: CYP3A4 (Homo sapiens, UniProt P08684)
Unit symbol: %
Observed value: 52.3

[I] COc1cccc2c1S(=O)(=O)CCC2NCCOc1cc(F)ccc1F (stereo unspecified)
[II] O=S1(=O)CCC(NCCOc2cc(F)ccc2F)c2ccccc21 (stereo unspecified)
Input line: Could you tell me which of I and II has the lower inhibition at 10 min, 10 µM reading? Return value: the label identifying the chosen record.
Output line: I
(I: 17.1%, II: 26.5%)

[P] CS(=O)(=O)c1ccc2c(c1)C(NCCOc1cc(F)ccc1F)CCS2(=O)=O (stereo unspecified)
[Q] CNc1ccc2c(c1)[C@@H](NCCOc1cc(F)ccc1F)CCS2(=O)=O
Input line: Could you tell me which of P and Q has the lower inhibition at 10 min, 10 µM reading? Return value: the label identifying the chosen record.
Output line: P
(P: 5.2%, Q: 20.7%)

---

Consider the following Ki values measured on Alpha-1D adrenergic receptor (Homo sapiens, UniProt P25100).
Sequence (P25100 whole entry): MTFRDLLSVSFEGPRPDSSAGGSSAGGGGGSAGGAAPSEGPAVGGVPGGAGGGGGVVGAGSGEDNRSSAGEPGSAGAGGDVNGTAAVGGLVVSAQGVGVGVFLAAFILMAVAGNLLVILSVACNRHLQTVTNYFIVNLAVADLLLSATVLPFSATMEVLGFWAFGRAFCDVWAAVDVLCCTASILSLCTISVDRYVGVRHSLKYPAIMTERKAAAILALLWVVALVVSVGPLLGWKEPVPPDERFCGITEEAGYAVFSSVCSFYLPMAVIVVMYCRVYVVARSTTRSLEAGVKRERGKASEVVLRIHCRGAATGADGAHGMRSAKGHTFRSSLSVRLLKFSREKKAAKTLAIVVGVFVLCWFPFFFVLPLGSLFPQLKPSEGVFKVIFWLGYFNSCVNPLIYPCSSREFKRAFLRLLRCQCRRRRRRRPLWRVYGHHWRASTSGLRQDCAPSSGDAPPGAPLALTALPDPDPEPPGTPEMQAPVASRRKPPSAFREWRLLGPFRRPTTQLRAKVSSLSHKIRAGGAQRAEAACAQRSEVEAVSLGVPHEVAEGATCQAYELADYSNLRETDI
Measure name: Ki (nM)

Compound: CS(=O)(=O)c1ccc2c(c1)C(NCCOc1cc(F)ccc1F)CCS2(=O)=O (configuration not stated)
Ki (nM): 310
//
Compound: COc1ccc2c(c1)C(NCCOc1cc(F)ccc1F)CCS2(=O)=O (configuration not stated)
Ki (nM): 1.5
//
Compound: NC(=O)c1ccc2c(c1)C(NCCOc1cc(F)ccc1F)CCS2(=O)=O (configuration not stated)
Ki (nM): 86
//
Compound: COc1ccc2c(c1)S(=O)(=O)CCC2NCCOc1cc(F)ccc1F (configuration not stated)
Ki (nM): 38
//
Compound: CS(=O)(=O)c1ccc(Cl)cc1CNCCOc1cc(F)ccc1Cl
Ki (nM): 17

[I] CNc1ccc2c(c1)[C@@H](NCCOc1cc(F)ccc1F)CCS2(=O)=O
[II] Fc1ccc(Cl)c(OCCNCc2cccc(Cl)c2)c1
Input line: Short answer wanted: higher Ki, I or II ? Return value: the label identifying the chosen record.
Output line: II
(II: 65 nM, I: 0.3 nM)

---

# Species: Homo sapiens
# Test name: Selectivity ratio of Ki for human alpha1A-adrenoreceptor to Ki for human alpha1D-adrenoreceptor
Measure name: Ratio Ki

Molecule: CNc1ccc2c(c1)[C@@H](NCCOc1cc(F)ccc1F)CCS2(=O)=O
Ratio Ki: 430

[I] CS(=O)(=O)c1ccc(Cl)cc1CNCCOc1cc(F)ccc1Cl
[II] CNc1ccc2c(c1)[C@H](NCCOc1cc(F)ccc1F)CCS2(=O)=O
[III] CNc1ccc2c(c1)C(NCCOc1cc(F)ccc1F)CCS2(=O)=O (centres undefined)
Input line: Order by Ratio Ki, ascending. // rank by listing labels in the order requested
Output line: II, I, III
(II: 19, I: 110, III: 410)
